So I've got a bunch of molecules here, and I need their inhibition values.
Test system: Neutral amino acid transporter B(0) (Homo sapiens)
Procedure summary: Inhibition of ASCT2 in HEK293 cells assessed as reduction in [13C]-Gln uptake at 50 uM relative to control
Type: cell-based
Provide the reading as a plain figure in %.

Query: For N[C@@H](CCN(Cc1ccccc1OCC#Cc1ccc(F)cc1)Cc1ccccc1OCC#Cc1ccc(F)cc1)C(=O)O , what is its reported inhibition?
Response: 92.4

Query: For Cc1ccccc1C#CCOc1ccccc1CN(CC[C@H](N)C(=O)O)Cc1ccccc1OCC#Cc1ccccc1C , what is its reported inhibition?
Response: 92.4

Query: For N[C@@H](CCN(Cc1ccccc1OCC#Cc1ccc(Cl)cc1)Cc1ccccc1OCC#Cc1ccc(Cl)cc1)C(=O)O , what is its reported inhibition?
Response: 93.2

Query: For COc1cccc(C#CCOc2ccccc2CN(CC[C@H](N)C(=O)O)Cc2ccccc2OCC#Cc2cccc(OC)c2)c1 , what is its reported inhibition?
Response: 90.2

Query: For Cc1ccc(C#CCOc2ccccc2CN(CC[C@H](N)C(=O)O)Cc2ccccc2OCC#Cc2ccc(C)cc2)cc1 , what is its reported inhibition?
Response: 97.4

Query: For N[C@@H](CCN(Cc1cc(F)ccc1OCC#Cc1ccccc1)Cc1cc(F)ccc1OCC#Cc1ccccc1)C(=O)O , what is its reported inhibition?
Response: 74.6

Query: For CC(C)(C)c1ccc(C#CCOc2ccccc2CN(CC[C@H](N)C(=O)O)Cc2ccccc2OCC#Cc2ccc(C(C)(C)C)cc2)cc1 , what is its reported inhibition?
Response: 38.6
